tested on: S. pyogenes 19615; experiment: MIC, agar incorporation method; format: cell-based, Streptococcus pyogenes; conditions: S. pyogenes 19615; agar incorporation
Can you tell me log10 MIC for the items I'm about to list?
Scale: decimal log of MIC, MIC in µg/mL.

Some molecules with recorded log10 MIC:
CC(=O)NC[C@H]1CN(c2ccc(N3C[C@@H]4[C@@H](CN(C)C(=O)Cc5cccs5)[C@@H]4C3)c(F)c2)C(=O)O1 | 0.00
CC(=O)NC[C@H]1CN(c2ccc(N3CCN(C(=O)c4ccco4)CC3)c(F)c2)C(=O)O1 | 0.00
CC(=O)NC[C@H]1CN(c2ccc(N3CCN(Cc4cc(Br)cs4)CC3)c(F)c2)C(=O)O1 | 0.30
CC(=O)NC[C@H]1CN(c2ccc(N3CCC(N(C)Cc4ccc([N+](=O)[O-])s4)CC3)c(F)c2)C(=O)O1 | -0.30
CC(=O)NC[C@H]1CN(c2ccc(N3CCN(C(=O)c4ccc([N+](=O)[O-])o4)CC3)c(F)c2)C(=O)O1 | 0.30
CC(=O)NC[C@H]1CN(c2ccc(N3CCN(Cc4ccc(C=NO)o4)CC3)c(F)c2)C(=O)O1 | 0.60
CC(=O)NC[C@H]1CN(c2ccc(N3CCN(Cc4ccc([N+](=O)[O-])o4)CC3)c(F)c2)C(=O)O1.Cl | -0.30
CC(=O)NC[C@H]1CN(c2ccc(N3CC4C(C3)C4N(C)Cc3ccc(C=O)o3)c(F)c2)C(=O)O1 (some centres unmarked) | -0.60
CC(=O)NC[C@H]1CN(c2ccc(N3CCN(Cc4ccc(C=NN)o4)CC3)c(F)c2)C(=O)O1 | 0.90
CC(=O)NC[C@H]1CN(c2ccc(N3C[C@@H]4[C@@H](CN(C)Cc5ccc([N+](=O)[O-])s5)[C@@H]4C3)c(F)c2)C(=O)O1 | -0.30

I need log10 MIC for every entry listed below, if you could help.
1. CC(=O)NC[C@H]1CN(c2ccc(N3CCN(C(=O)c4ccoc4)CC3)c(F)c2)C(=O)O1
2. CC(=O)NC[C@H]1CN(c2ccc(N3CCN(C(=O)c4ccc(CCl)o4)CC3)c(F)c2)C(=O)O1
3. CC(=O)NC[C@H]1CN(c2ccc(N3CCN(Cc4ccc(Cl)s4)CC3)c(F)c2)C(=O)O1

Return:
1. 0.00
2. 0.60
3. 0.00

Record summary for CC(=O)NC[C@H]1CN(c2ccc(N3CCN(Cc4ccc(C=O)o4)CC3)c(F)c2)C(=O)O1 : reported log10 MIC = 0.90
